# Test system: OXT-receptor compartment of the potassium depolarized rat myometrium
# assay-text: Oil-immersion (stopped-transport) and washout time–response experiments on myometrium strips
# recorded-conditions: K+-depolarized rat myometrium strip ex vivo, 30°C; from combined oil-immersion and washout data; arithmetic mean ± SD of computation runs
Numbered stars: 1 amine (or outer) side, 2 acyl side, 3 side chain; on linkers, the order of the positions; unused ones are H or OH. Bridge positions count the residues as written; N and C are the ends. Peptide text beside a SMILES is read from it. X1 = O=C([C@@H](O)CS[*:2])[*:1]
quantity-name: k r (transport rate constant between receptor compartment and aqueous medium) (min⁻¹)
Give just the number in min⁻¹; leave the unit off.

CC[C@H](C)[C@@H]1NC(=O)[C@H](Cc2ccc(O)cc2)NC(=O)CCSSC[C@@H](C(=O)N2CCC[C@H]2C(=O)N[C@@H](CC(C)C)C(=O)NCC(N)=O)NC(=O)[C@H](CC(N)=O)NC(=O)[C@H](CCC(N)=O)NC1=O [DOT, [1‐β‐mercaptopropionic acid]‐OXT]	0.149

## Task Suppose we examine the compound CC[C@H](C)[C@@H]1NC(=O)[C@H](Cc2ccc(O)cc2)NC(=O)CCSSC[C@@H](C(=O)N2CCC[C@H]2C(=O)N[C@@H](CC(C)C)C(=O)NNC(N)=O)NC(=O)[C@H](CC(N)=O)NC(=O)[C@H](CCC(N)=O)NC1=O ; what k r (transport rate constant between receptor compartment and aqueous medium) value has been reported?
## Result 0.139

## Task Now this one: CC[C@H](C)[C@@H]1NC(=O)[C@H](Cc2ccc(O)cc2)NC(=O)[C@@H](O)CSSC[C@@H](C(=O)N2CCC[C@H]2C(=O)N[C@@H](CC(C)C)C(=O)NCC(N)=O)NC(=O)[C@H](CC(N)=O)NC(=O)[C@H](CCC(N)=O)NC1=O [HOT] (YIQNCPLG-NH2; linker N-5 via X1)
## Result 0.139

---

// reported k r (transport rate constant between receptor compartment and aqueous medium) for each item listed
# System: OXT-receptor compartment of the potassium depolarized rat myometrium
# assay-text: Oil-immersion (stopped-transport) and washout time–response experiments on myometrium strips
# recorded-conditions: K+-depolarized rat myometrium strip ex vivo, 30°C; from combined oil-immersion and washout data; arithmetic mean ± SD of computation runs
Numbered stars: 1 amine (or outer) side, 2 acyl side, 3 side chain; on linkers, the order of the positions; unused ones are H or OH. Bridge positions count the residues as written; N and C are the ends. Peptide text beside a SMILES is read from it. X2 = O=C(CCC[*:2])[*:1]
# number only, unit min⁻¹ dropped from output

CC[C@H](C)[C@@H]1NC(=O)[C@H](Cc2ccc(O)cc2)NC(=O)CCCSC[C@@H](C(=O)N2CCC[C@H]2C(=O)N[C@@H](CC(C)C)C(=O)NCC(N)=O)NC(=O)[C@H](CC(N)=O)NC(=O)[C@H](CCC(N)=O)NC1=O [DC1OT, [1,6‐(2‐Amino‐4‐thiasuberic acid)]‐OXT] (YIQNCPLG-NH2; linker N-5 via X2)	0.097
CC[C@H](C)[C@@H]1NC(=O)[C@H](Cc2ccc(O)cc2)NC(=O)[C@@H](N)CSSC[C@@H](C(=O)N2CCC[C@H]2C(=O)N[C@@H](CC(C)C)C(=O)NNC(N)=O)NC(=O)[C@H](CC(N)=O)NC(=O)[C@H](CCC(N)=O)NC1=O [AOT, [9‐Azaglycine]‐OXT]	0.158
CC[C@H](C)[C@@H]1NC(=O)[C@H](Cc2ccc(O)cc2)NC(=O)CCSSC[C@@H](C(=O)N2CCC[C@H]2C(=O)N[C@@H](CC(C)C)C(=O)NCC(N)=O)NC(=O)[C@H](CC(N)=O)NC(=O)[C@H](CCC(=O)OC)NC1=O	0.107

## Task So what's the measured k r (transport rate constant between receptor compartment and aqueous medium) for this one? CC[C@H](C)[C@@H]1NC(=O)[C@H](Cc2ccc(O)cc2)NC(=O)[C@@H](N)CSSC[C@@H](C(=O)N2CCC[C@H]2C(=O)N[C@@H](CC(C)C)C(=O)NCC(N)=O)NC(=O)[C@H](CC(N)=O)NC(=O)[C@H](CCC(=O)OC)NC1=O [GOT, [4‐Glutamic acid‐δ‐methylester]‐OXT]
## Result 0.108

---

# System: OXT-receptor compartment of the potassium depolarized rat myometrium
# assay-text: Oil-immersion (stopped-transport) and washout time–response experiments on myometrium strips
# recorded-conditions: K+-depolarized rat myometrium strip ex vivo, 30°C, washout decay phase; arithmetic mean ± SD of computation runs
quantity-name: Cumulative clearance k r + κ

## Task Please report the recorded Cumulative clearance k r + κ for CC[C@H](C)[C@@H]1NC(=O)[C@H](Cc2ccc(O)cc2)NC(=O)CCSSC[C@@H](C(=O)N2CCC[C@H]2C(=O)N[C@@H](CC(C)C)C(=O)NNC(N)=O)NC(=O)[C@H](CC(N)=O)NC(=O)[C@H](CCC(N)=O)NC1=O .
## Result 0.194 ± 0.033 min⁻¹

---

Parameter Cumulative clearance k r + κ: see the listing below.
# System: OXT-receptor compartment of the potassium depolarized rat myometrium
# assay-text: Oil-immersion (stopped-transport) and washout time–response experiments on myometrium strips
# recorded-conditions: K+-depolarized rat myometrium strip ex vivo, 30°C, washout decay phase; arithmetic mean ± SD of computation runs
Numbered stars: 1 amine (or outer) side, 2 acyl side, 3 side chain; on linkers, the order of the positions; unused ones are H or OH. Bridge positions count the residues as written; N and C are the ends. Peptide text beside a SMILES is read from it. X1 = O=C([C@@H](O)CS[*:2])[*:1]; X2 = O=C(CCC[*:2])[*:1]
The answer consists of two parts: a number and, after it, its unit.

CC[C@H](C)[C@@H]1NC(=O)[C@H](Cc2ccc(O)cc2)NC(=O)CCSSC[C@@H](C(=O)N2CCC[C@H]2C(=O)N[C@@H](CC(C)C)C(=O)NCC(N)=O)NC(=O)[C@H](CC(N)=O)NC(=O)[C@H](CCC(N)=O)NC1=O [DOT, [1‐β‐mercaptopropionic acid]‐OXT]	0.176 ± 0.024 min⁻¹

## Task Identify the measured Cumulative clearance k r + κ of CC[C@H](C)[C@@H]1NC(=O)[C@H](Cc2ccc(O)cc2)NC(=O)[C@@H](N)CCCC[C@@H](C(=O)N2CCC[C@H]2C(=O)N[C@@H](CC(C)C)C(=O)NCC(N)=O)NC(=O)[C@H](CC(N)=O)NC(=O)[C@H](CCC(N)=O)NC1=O [C1,6OT, [1,6‐α′,α‐diaminosuberic acid]‐OXT] for OXT-receptor compartment of the potassium depolarized rat myometrium.
## Result 0.263 ± 0.009 min⁻¹

## Task Proceed to CC[C@H](C)[C@@H]1NC(=O)[C@H](Cc2ccc(O)cc2)NC(=O)CCCSC[C@@H](C(=O)N2CCC[C@H]2C(=O)N[C@@H](CC(C)C)C(=O)NCC(N)=O)NC(=O)[C@H](CC(N)=O)NC(=O)[C@H](CCC(N)=O)NC1=O [DC1OT, [1,6‐(2‐Amino‐4‐thiasuberic acid)]‐OXT] (YIQNCPLG-NH2; linker N-5 via X2)
## Result 0.160 ± 0.021 min⁻¹

## Task Next: CC[C@H](C)[C@@H]1NC(=O)[C@H](Cc2ccc(O)cc2)NC(=O)[C@@H](O)CSSC[C@@H](C(=O)N2CCC[C@H]2C(=O)N[C@@H](CC(C)C)C(=O)NCC(N)=O)NC(=O)[C@H](CC(N)=O)NC(=O)[C@H](CCC(N)=O)NC1=O [HOT] (YIQNCPLG-NH2; linker N-5 via X1)
## Result 0.289 ± 0.010 min⁻¹

## Task What about CC[C@H](C)[C@@H]1NC(=O)[C@H](Cc2ccc(O)cc2)NC(=O)[C@@H](N)CSSC[C@@H](C(=O)N2CCC[C@H]2C(=O)N[C@@H](CC(C)C)C(=O)NNC(N)=O)NC(=O)[C@H](CC(N)=O)NC(=O)[C@H](CCC(N)=O)NC1=O [AOT, [9‐Azaglycine]‐OXT] ?
## Result 0.278 ± 0.015 min⁻¹

---

# Test system: OXT-receptor compartment of the potassium depolarized rat myometrium
# assay-text: Oil-immersion (stopped-transport) and washout time–response experiments on myometrium strips
# recorded-conditions: K+-depolarized rat myometrium strip ex vivo, high potassium Ringer medium (Ca2+, Mg2+ 0.5 mM), 30°C, oil-immersion decay phase, isometric tension, nonlinear regression; arithmetic mean ± SD of computation runs
Numbered stars: 1 amine (or outer) side, 2 acyl side, 3 side chain; on linkers, the order of the positions; unused ones are H or OH. Bridge positions count the residues as written; N and C are the ends. Peptide text beside a SMILES is read from it. X1 = O=C([C@@H](O)CS[*:2])[*:1]
quantity-name: κ Observed (irreversible clearance rate constant in the receptor compartment)
Field note: include the unit after the figure.

CC[C@H](C)[C@@H]1NC(=O)[C@H](Cc2ccc(O)cc2)NC(=O)[C@@H](O)CSSC[C@@H](C(=O)N2CCC[C@H]2C(=O)N[C@@H](CC(C)C)C(=O)NCC(N)=O)NC(=O)[C@H](CC(N)=O)NC(=O)[C@H](CCC(N)=O)NC1=O [HOT] (YIQNCPLG-NH2; linker N-5 via X1)	0.141 ± 0.008 min⁻¹
CC[C@H](C)[C@@H]1NC(=O)[C@H](Cc2ccc(O)cc2)NC(=O)[C@@H](N)CSSC[C@@H](C(=O)N2CCC[C@H]2C(=O)N[C@@H](CC(C)C)C(=O)NNC(N)=O)NC(=O)[C@H](CC(N)=O)NC(=O)[C@H](CCC(N)=O)NC1=O [AOT, [9‐Azaglycine]‐OXT]	0.118 ± 0.008 min⁻¹
CC[C@H](C)[C@@H]1NC(=O)[C@H](Cc2ccc(O)cc2)NC(=O)CCSSC[C@@H](C(=O)N2CCC[C@H]2C(=O)N[C@@H](CC(C)C)C(=O)NCC(N)=O)NC(=O)[C@H](CC(N)=O)NC(=O)[C@H](CCC(N)=O)NC1=O [DOT, [1‐β‐mercaptopropionic acid]‐OXT]	0.049 ± 0.021 min⁻¹
CC[C@H](C)[C@@H]1NC(=O)[C@H](Cc2ccc(O)cc2)NC(=O)[C@@H](N)CSSC[C@@H](C(=O)N2CCC[C@H]2C(=O)N[C@@H](CC(C)C)C(=O)NCC(N)=O)NC(=O)[C@H](CC(N)=O)NC(=O)[C@H](CCC(=O)OC)NC1=O [GOT, [4‐Glutamic acid‐δ‐methylester]‐OXT]	0.166 min⁻¹
CC[C@H](C)[C@@H]1NC(=O)[C@H](Cc2ccc(O)cc2)NC(=O)[C@@H](N)CSSC[C@@H](C(=O)N2CCC[C@H]2C(=O)N[C@@H](CC(C)C)C(=O)NCC(N)=O)NC(=O)[C@H](CC(N)=O)NC(=O)[C@H](CCC(N)=O)NC1=O [OXT, Oxytocin, reference compound]	0.137 ± 0.025 min⁻¹

As a next step, examine the molecule that follows.
## Task Could you share which κ Observed (irreversible clearance rate constant in the receptor compartment) value was measured for CC[C@H](C)[C@@H]1NC(=O)[C@H](Cc2ccc(O)cc2)NC(=O)CCSSC[C@@H](C(=O)N2CCC[C@H]2C(=O)N[C@@H](CC(C)C)C(=O)NNC(N)=O)NC(=O)[C@H](CC(N)=O)NC(=O)[C@H](CCC(N)=O)NC1=O [DAOT] ?
## Result 0.042 ± 0.015 min⁻¹
